- subjectOfTest: Acyl-protein thioesterase 2 (Homo sapiens) (UniProt O95372)
- Sequence (O95372 whole entry, looked up): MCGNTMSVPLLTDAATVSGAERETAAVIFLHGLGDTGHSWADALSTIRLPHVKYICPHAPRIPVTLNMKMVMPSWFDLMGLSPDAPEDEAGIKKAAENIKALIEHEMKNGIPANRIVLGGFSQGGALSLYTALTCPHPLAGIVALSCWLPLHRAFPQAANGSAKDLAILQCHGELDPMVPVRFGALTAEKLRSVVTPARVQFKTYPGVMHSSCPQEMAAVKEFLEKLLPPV
- experiment: inhibition of human lysophospholipase 2 – biochemical, fluorescence polarization, FP-Rh probe ABPP, counter-screen for PME1 inhibitor project, confirmation (AID 2232);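 further: blocked labeling of the enzyme by serine hydrolase FP-Rh probe lowers polarization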
- testContext: recombinant LYPLA2, FP-Rh probe fluorescence polarization; at 5.9 µM
Hit rate of the full screen: of about 1,100 compounds, about 790 (72%) were called active.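 How the source made its calls: active means mean inhibition across replicates above the hit cutoff set in the primary screen (cut at about 26% in these data); inactive means the rest.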 So high a share suggests a set chosen from earlier hits. These entries were drawn from the full list.
Would you mind answering with one of these outcomes? True (active), False (inactive)

Query: What did this assay record as the result for `CCOC(=O)c1cc2cc(-c3c(C(=O)OCC)oc4cc(O)cc(O)c4c3=O)ccc2o1` ?
Response: True

Query: Similarly, `O=C(Nc1ccc(N2CCN(C(=O)c3cccs3)CC2)cc1)c1cccnc1Cl` ?
Response: True

Query: Thanks! And CCC(=O)c1ccc(OCC(O)CN2CCN(c3cccc(C(F)(F)F)c3)CC2)cc1 (stereo not given) ?
Response: True

Query: Also CC(=O)N1c2ccc(S(=O)(=O)N3CCC(C(=O)N4CCN(c5ccccc5)CC4)CC3)cc2CC1C (stereo not given) , if possible.
Response: True

Query: Field entry: `CSc1cccc(NC(=O)CN2C(=O)COc3ccc(S(=O)(=O)N4CCOCC4)cc32)c1`
Response: True

Query: Would you kindly repeat that for O=[N+]([O-])c1ccc(N2CCN(CC(O)COc3ccccc3)CC2)cc1 (stereo not given) ?
Response: True

Query: Also check COc1ccc(N2CC(C(=O)NCCN3C(=O)S/C(=C\c4cccnc4)C3=O)CC2=O)c(OC)c1 (stereo not given)
Response: False

Query: // repeat for Cc1ccc(/C=N/NC(=O)C(NC(=O)c2ccccc2)c2n[nH]c(=O)c3ccccc23)cc1 (stereo not given) and report
Response: True

Query: Similarly, `O=C(CCCN1C(=O)c2cccc3cccc(c23)C1=O)N1CCN(Cc2ccc3c(c2)OCO3)CC1` ?
Response: True

Query: Also `CCC(=C/c1sc2ccc3ccccc3c2[n+]1C)/C=C1\Sc2ccc3ccccc3c2N1C` ?
Response: False

Query: Consider next the compound `Cc1cc(OCCCN2CCN(Cc3ccccc3)CC2)ccc1[N+](=O)[O-]` in the same way.
Response: True

Query: # iterate: COc1ccccc1C(=O)NC(CCSC)C(=O)N1CCN(C/C=C/c2ccccc2)CC1 (stereo not given)
Response: True

Query: Now this one: `O=C(CCCN1C(=O)CSc2ncccc21)N1CCN(c2cccc(C(F)(F)F)c2)CC1`
Response: True

Query: Queued: `N#Cc1cc([N+](=O)[O-])ccc1Oc1cccc(/C=N/NC(=O)c2ccc(Cl)cc2)c1`
Response: False

Query: Can you check `O=C(Nc1ccc(N2CCN(C(=O)c3ccccc3)CC2)c(Cl)c1)c1cccnc1` next?
Response: True

Query: Same question, `N#Cc1ccc(C2=CC(=O)C[C@H](c3ccc(Cl)cc3)C2)cc1` this time
Response: True

Query: Cool, now `COc1ccc(CCNc2nc(-c3cccc(NC(C)=O)c3)cs2)cc1OC`
Response: False

Query: Lookup CC(=O)c1ccc(N2CCN(C(=O)C3CCN(S(=O)(=O)c4ccc5c(c4)CC(C)N5C(=O)C4CC4)CC3)CC2)cc1 (stereo not given)
Response: True

Query: Moving on to the next compound: `Cc1nc([N+](=O)[O-])cn1CC(=O)Nc1ccc(Cl)cc1`
Response: True

Query: How about `O=C(c1ccco1)N1CCN(C(=S)Nc2cc(F)cc(F)c2)CC1` ?
Response: True

Query: Moving on to the next compound: `Cc1nn(Cc2ccccc2)c(C)c1CNC(=O)c1ccc(F)c(S(=O)(=O)N2CCOCC2)c1`
Response: False

Query: Request: Cc1ccc(C(c2sc3nc(C)nn3c2O)N2CCN(c3ccc(F)cc3)CC2)cc1 (stereo not given)
Response: True

Query: Follow-up entry: `O=[N+]([O-])c1ccc(Oc2ccc(F)cc2Br)c2ccncc12`
Response: True

Query: Quick one: CCN(CC)C(=O)CC1(c2ccccc2OC)CCOC(C(C)C)C1 (stereo not given)
Response: False

Query: Param item: Cc1cc(C)c(C#N)c(SCc2[nH]nc3c2C(c2ccccc2)C(C#N)=C(N)O3)n1 (stereo not given)
Response: True

Provenance of the data: PubChem BioAssay AID2232
